assay_system: T1, human IL1RAP on the cell surface (human, UniProt Q9NPH3 21-570)
T1 sequence (looked up): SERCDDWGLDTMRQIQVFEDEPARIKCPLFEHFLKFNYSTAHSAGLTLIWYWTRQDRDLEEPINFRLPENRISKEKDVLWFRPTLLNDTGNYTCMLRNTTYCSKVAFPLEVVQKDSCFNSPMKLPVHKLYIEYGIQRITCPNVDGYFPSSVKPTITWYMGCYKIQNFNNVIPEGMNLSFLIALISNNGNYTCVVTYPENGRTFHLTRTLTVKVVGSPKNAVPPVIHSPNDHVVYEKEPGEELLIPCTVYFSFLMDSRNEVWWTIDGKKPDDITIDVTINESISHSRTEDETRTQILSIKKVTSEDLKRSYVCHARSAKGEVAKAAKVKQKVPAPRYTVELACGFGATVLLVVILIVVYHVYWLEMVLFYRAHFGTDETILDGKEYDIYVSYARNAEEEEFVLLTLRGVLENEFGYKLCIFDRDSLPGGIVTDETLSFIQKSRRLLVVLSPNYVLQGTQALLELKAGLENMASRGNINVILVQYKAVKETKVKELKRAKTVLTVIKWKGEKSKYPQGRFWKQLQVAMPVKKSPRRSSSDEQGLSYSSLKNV
protocol: cell-based or functional assay
experimental_endpoint: IC50 of IL-36γ signaling (HEK-Blue assay) (nM)
The reply should contain only the number, in nM.

Q) Fill blank: measured IC50 of IL-36γ signaling (HEK-Blue assay) of the binder h48D2 VH5:VL3 (antibody, human IgG1, kappa, L234A L235A, V domains shown, Humanized; also called VL3:VH5) VH: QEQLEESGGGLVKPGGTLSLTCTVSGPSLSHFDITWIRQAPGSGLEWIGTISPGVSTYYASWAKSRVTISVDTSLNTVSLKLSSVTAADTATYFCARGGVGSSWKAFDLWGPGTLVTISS VL: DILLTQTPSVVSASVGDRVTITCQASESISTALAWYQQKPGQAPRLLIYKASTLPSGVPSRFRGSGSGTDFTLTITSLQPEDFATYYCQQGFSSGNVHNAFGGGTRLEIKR is ____.
A) 0.167
